System: Saccharomyces cerevisiae;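 note: PSI is a weighted mean of sequencing reads over stability bins, variants kept only with over 10 reads, mCherry proximal and sfGFP distal, peptide attached via GGGS linker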
Assay: protein stability index of tFT-peptide fusion (C-terminal peptide) (PSI (0-1 scale)); higher = more stable (slower turnover)
Conditions: genetic background: wild type; temperature: 30 C
MEASURED_QUANTITY: protein stability index
Answers are plain numbers.

Hey, can you go through the list below and give me protein stability index for every item?
1. ALFKESMLSTCA
2. GGRFVWIVRAVG
3. WTFEYRNHKMKK
4. CILVSVDVIVFF
5. LRKVIGVSFCLA
6. LFLGLLLMNDWL
7. WGTGGRRGVGHV
8. EQDLSTKVKRST

0.564
0.471
0.715
0.212
0.542
0.774
0.709
0.65

Hey, can you go through the list below and give me protein stability index for every item?
1. QGSSLLPLYFPD
2. GFISKLIIKLAA

[0.622, 0.435]
